Recorded Ratio IC50 for the following molecules
Test system: KB
Assay: Resistance ratio of IC50 for human KB 8.5 cells expressing MDR1 to IC50 for MDR1 deficient human KB cells
Format: functional
Enter the number alone.

The cases that follow already have their Ratio IC50 on record.
[
  {
    "MOLECULAR STRING": "CC[C@H](C)[C@H](NC(=O)[C@H]1CCCCN1C)C(=O)N(C)[C@H](C[C@@H](OC(C)=O)c1nc(C(=O)N[C@@H](Cc2ccccc2)CN2CCOCC2)cs1)C(C)C",
    "TARGET ENTITY": "KB",
    "Ratio IC50": 5
  },
  {
    "MOLECULAR STRING": "CC[C@H](C)[C@H](NC(=O)[C@H]1CCCCN1C)C(=O)N(C)[C@H](C[C@@H](OC(C)=O)c1nc(C(=O)NCCc2cscn2)cs1)C(C)C",
    "TARGET ENTITY": "KB",
    "Ratio IC50": 5
  }
]

Kindly consider the entry below.
[Q] Param readout= Ratio IC50; system= KB; entry= CC[C@H](C)[C@H](NC(=O)[C@@]1(C)CCCN1)C(=O)N(C)[C@H](C[C@@H](OC(C)=O)c1nc(C(=O)N[C@@H](Cc2ccccc2)C[C@H](C)C(=O)OC)cs1)C(C)C ; returns value.
[A] 9
